The reported numbers originate from the supplement of paper PMC10065799.

molecular target: Fyn (UniProt P06241); assay: phosphorylation enrichment, bacterial display (enrichment ratio); higher = better substrate or ligand; peptides without Tyr show the background;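 also: 11-residue human phosphosite peptides and single-mutation variants displayed on the E. coli surface, counted by deep sequencing, each peptide's frequency after selection divided by its frequency in the unselected input library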;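 also: frequency after pTyr selection over input frequency; kinase dosed for 20-30% of maximal phosphorylation in three min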
Sequence (P06241 whole entry, looked up): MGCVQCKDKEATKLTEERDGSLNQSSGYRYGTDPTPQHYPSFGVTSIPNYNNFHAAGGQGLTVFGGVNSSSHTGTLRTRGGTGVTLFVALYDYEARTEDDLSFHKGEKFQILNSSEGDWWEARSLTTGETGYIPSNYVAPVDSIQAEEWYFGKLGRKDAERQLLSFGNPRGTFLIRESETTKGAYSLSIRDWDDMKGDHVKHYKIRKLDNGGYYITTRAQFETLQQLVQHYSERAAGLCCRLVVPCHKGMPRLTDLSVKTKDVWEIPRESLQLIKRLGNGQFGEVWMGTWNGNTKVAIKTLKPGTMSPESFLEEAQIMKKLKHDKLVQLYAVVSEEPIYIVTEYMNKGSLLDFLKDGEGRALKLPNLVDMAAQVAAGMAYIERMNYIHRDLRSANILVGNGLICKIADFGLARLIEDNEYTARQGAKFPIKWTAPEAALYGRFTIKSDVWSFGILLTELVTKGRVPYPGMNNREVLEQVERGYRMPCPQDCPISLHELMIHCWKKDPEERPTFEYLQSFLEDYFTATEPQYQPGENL
attribute.measured: phosphorylation enrichment

monomer.sequence: FRVDCYKNFVA [FHL1_Y213_C209R_YF]
result: 0.566
//
monomer.sequence: LQKNIYSEELR [LMNA_Y211_F206L]
result: 1.92
//
monomer.sequence: AVLQLYIFVAT [CFTR_Y1014_P1013L]
result: 0.516

Suppose we examine the sequence KNKELYSDLFD [PDE10A_Y300] ; what phosphorylation enrichment value has been reported? 0.68

RALRHYFKLNI [ETV6_Y401_YF] , same question. 0.373

RAHARYCADAR [ACOT4_Y52] , same question. 0.392
